System: C. krusei NCPF3876
Assay: microbe, parasite or virus in culture
Type: cell-based, Candida krusei
Details: Pichia kudriavzevii, NCPF3876; Table 4, common panel; 24 hours, ≥50% inhibition; read-out: MIC C. krusei NCPF3876
OBSERVED_PROPERTY: MIC (µg/mL)
Numbers only, in µg/mL.

Check out these entries, answers already filled in.
In [3]: df
Out[3]:
                                   compound                 tgt  observed_property  meas_value
0  OC(CN1C[C@H]2CC(Nc3ccc(F)cc3)C[C@H]2C1)(Cn1cncn1)c1ccc(F)cc1F (some centres unmarked)  C. krusei NCPF3876                MIC           1
1  OC(CN1CCC2(CCN(c3ccc(OCCN4CCOCC4)cc3)CC2)C1)(Cn1cncn1)c1ccc(F)cc1F (centres unmarked)  C. krusei NCPF3876                MIC           1
2  CN1CCC(Oc2ccc(NC3CCN(CC(O)(Cn4cncn4)c4ccc(F)cc4F)CC3)cc2)CC1 (centres unmarked)  C. krusei NCPF3876                MIC           8
3  Cc1ccc(-c2ccc(NC3C[C@@H]4CN(CC(O)(Cn5cncn5)c5ccc(F)cc5F)C[C@@H]4C3)cc2)cc1F (some centres unmarked)  C. krusei NCPF3876                MIC           1
4  CC1CCN(COc2ccc(NC3CCN(CC(O)(Cn4cncn4)c4ccc(F)cc4F)CC3)cc2)CC1 (centres unmarked)  C. krusei NCPF3876                MIC           4

// each listed compound needs a value for MIC
1. OC(CN1CCC2(CCC(Nc3ccc(OCCN4CCOCC4)cc3)CC2)C1)(Cn1cncn1)c1ccc(F)cc1F (centres unmarked)
2. CC(C)COc1ccc(NC2CCN(CC(O)(Cn3cncn3)c3ccc(F)cc3F)CC2)cc1 (centres unmarked)

Ans:
1. 1
2. 0.03

// each listed compound needs a value for MIC
1. OC(CN1CCCN(c2ncc(F)cn2)CC1)(Cn1cncn1)c1ccc(F)cc1F (centres unmarked)
2. COCCOc1ccc(NC2CCN(CC(O)(Cn3cncn3)c3ccc(F)cc3F)CC2)cc1 (centres unmarked)
3. OC(CN1CCC2(CCN(c3ncc(F)cn3)CC2)C1)(Cn1cncn1)c1ccc(F)cc1F (centres unmarked)

Ans:
0.5
0.5
0.06

----------
Test system: Candida auris TDG2506
Test: microbe, parasite or virus in culture
Type: cell-based
Settings: Candidozyma auris, TDG2506, read-out: MIC C. auris 2506
OBSERVED_PROPERTY: MIC (µg/mL)
Give bare numbers, in µg/mL.

Check out these entries, answers already filled in.
In [3]: df
Out[3]:
                                   molecule  meas_value
0  C[C@@H](c1ncncc1F)[C@](O)(Cn1cncn1)c1ccc(F)cc1F [Voriconazole, voriconazole, reference compound]           2
1  OC(CN1CCC(Nc2ccc(OCCN3CCOCC3)cc2)CC1)(Cn1cncn1)c1ccc(F)cc1F (centres unmarked)        0.25
2  OC(CN1CCC2(CCC(Nc3ccc(OCCN4CCOCC4)cc3)CC2)C1)(Cn1cncn1)c1ccc(F)cc1F (centres unmarked)       0.125

Lab note: next molecule to report on.
MIC in this record for OC(CN1CCC(Nc2ccc(Cc3ccccc3)cc2)CC1)(Cn1cncn1)c1ccc(F)cc1F (centres unmarked) : 0.125

----------
System: C. krusei NCPF3876
Assay: microbe, parasite or virus in culture
Assay type: cell-based, Candida krusei
Conditions: Pichia kudriavzevii, NCPF3876; Table 4, common panel; 24 hours, ≥50% inhibition; read-out: MIC C. krusei NCPF3876
Kindly supply the reported MIC values for the records listed here.
One number for each entry, in µg/mL.

Check out these entries, answers already filled in.
                                   compound  observed_property  quantity_unit  meas_value
0  OC(CN1CCC(Nc2ccc(OCc3ccccc3)cc2)CC1)(Cn1cncn1)c1ccc(F)cc1F (centres unmarked) [Example 90]                MIC          µg/mL      0.0313
1  OC(CN1CCC(N2CCC(Nc3ncc(F)cn3)CC2)CC1)(Cn1cncn1)c1ccc(F)cc1F (centres unmarked) [Example 10]                MIC          µg/mL          32
2  OC(CN1CCCC(Nc2ccc(Cc3ccccc3)cc2)CC1)(Cn1cncn1)c1ccc(F)cc1F (centres unmarked) [Example 9]                MIC          µg/mL       0.008
3  OC(CN1C[C@H]2CC(Nc3ccc(N4CCCCC4)cc3)C[C@H]2C1)(Cn1cncn1)c1ccc(F)cc1F (some centres unmarked) [Example 100]                MIC          µg/mL           2
4  OC(CN1CCCCN(c2cnccn2)CC1)(Cn1cncn1)c1ccc(F)cc1F (centres unmarked) [Example 17]                MIC          µg/mL           4

MIC in this record for OC(CN1CC2CN(c3ncc(F)cn3)CC2C1)(Cn1cncn1)c1ccc(F)cc1F (centres unmarked) [Example 15] : 4

----------
System: Candida auris TDG2512
Experiment: Candida panel MIC, serial dilution in 96-well plates
Type: cell-based
Conditions: Candidozyma auris, TDG2512; Table 4, extended panel; 24 hours, ≥50% inhibition; read-out: MIC Candida auris TDG2512
OBSERVED_PROPERTY: MIC (µg/mL)
Numbers only, in µg/mL.

Check out these entries, answers already filled in.
>>> print(df.to_string())
                                   molecule  observed_property  meas_value
0  OC(CN1CCC(Nc2ccc(OCCN3CCOCC3)cc2)CC1)(Cn1cncn1)c1ccc(F)cc1F (stereo not drawn)                MIC       0.015
1  OC(CN1CCC(Nc2ccc(OCc3ccncc3)cc2)CC1)(Cn1cncn1)c1ccc(F)cc1F (stereo not drawn)                MIC     0.00781
2  CN1CCC(Oc2ccc(NC3CCN(CC(O)(Cn4cncn4)c4ccc(F)cc4F)CC3)cc2)CC1 (stereo not drawn)                MIC           2

// each listed molecule needs a value for MIC
1. OC(CN1CCCC(Nc2ccc(OCCN3CCOCC3)cc2)CC1)(Cn1cncn1)c1ccc(F)cc1F (stereo not drawn)
2. OC(CN1C[C@H]2CC(Nc3ccc(F)cc3)C[C@H]2C1)(Cn1cncn1)c1ccc(F)cc1F (stereo partly drawn)

Ans:
1. 0.125
2. 0.125

----------
Kindly supply the reported MIC values for the records listed here.
Tested on: Candida auris TDG2512
Assay: Candida panel MIC, serial dilution in 96-well plates
Format: cell-based
Conditions: Candidozyma auris, TDG2512; Table 4, extended panel; 24 hours, ≥50% inhibition; read-out: MIC Candida auris TDG2512
One number for each entry, in µg/mL.

                                   compound  meas_value
0  COc1ccc(Oc2ccc(NC3CCN(CC(O)(Cn4cncn4)c4ccc(F)cc4F)CC3)cc2)cc1 (centres unmarked) [Example 86]      0.0078
1  OC(CN1C[C@H]2CC(Nc3ccc(N4CCCCC4)cc3)C[C@H]2C1)(Cn1cncn1)c1ccc(F)cc1F (some centres unmarked) [Example 100]        0.25
2  OC(CN1CC2CN(c3ncc(F)cn3)CC2C1)(Cn1cncn1)c1ccc(F)cc1F (centres unmarked) [Example 15]           4

// each listed compound needs a value for MIC
1. OC(CN1CCC(N2CCC(Nc3ccccc3)CC2)CC1)(Cn1cncn1)c1ccc(F)cc1F (centres unmarked) [Example 14]
2. CC1CCN(COc2ccc(NC3CCN(CC(O)(Cn4cncn4)c4ccc(F)cc4F)CC3)cc2)CC1 (centres unmarked) [Example 83]

Ans:
1. 0.25
2. 0.25

MIC in this record for OC(Cn1cncn1)(Cn1cncn1)c1ccc(F)cc1F [Fluconazole, fluconazole, reference compound] : 16

----------
Kindly supply the reported MIC values for the records listed here.
System: C. auris 8971
Experiment: Candida panel MIC, serial dilution in 96-well plates
Type: cell-based, Candida auris
Settings: Candidozyma auris, 8971; Table 4, extended panel; 24 hours, ≥50% inhibition; read-out: MIC C. auris 8971
Description: The minimum inhibitory concentration of test compounds were determined in a panel of Candida species (see Table 4 below), using the a serial dilution method in 96-well plates using the following protocol. Starter cultures of fungal strains to be tested were grown in 3 mL of RPMI 2% glucose media incubated at 37° C. with shaking at 200 rpm overnight. […] A plate reader was used to measure growth in each well at OD530 nm and the MIC was determined for each test compound. […]
Numbers only, in µg/mL.

// each listed molecule needs a value for MIC
1. OC(CN1CCCN(c2ccc(OCCN3CCOCC3)cc2)CC1)(Cn1cncn1)c1ccc(F)cc1F (stereo not drawn)
2. OC(CN1CCC(N2CCC(Nc3ccccc3)CC2)CC1)(Cn1cncn1)c1ccc(F)cc1F (stereo not drawn)
3. COCCOc1ccc(NC2CCN(CC(O)(Cn3cncn3)c3ccc(F)cc3F)CC2)cc1 (stereo not drawn)
4. OC(CN1CC2CN(c3ncc(F)cn3)CC2C1)(Cn1cncn1)c1ccc(F)cc1F (stereo not drawn)
5. OC(CN1CCCC(Nc2ccc(Cc3ccccc3)cc2)CC1)(Cn1cncn1)c1ccc(F)cc1F (stereo not drawn)
6. OC(CN1CCC(N2CCC(Nc3ncc(F)cn3)CC2)CC1)(Cn1cncn1)c1ccc(F)cc1F (stereo not drawn)

Ans:
0.25
0.25
0.06
0.5
0.12
0.5

// each listed molecule needs a value for MIC
1. OC(CN1C[C@H]2CC(Nc3ccc(N4CCCCC4)cc3)C[C@H]2C1)(Cn1cncn1)c1ccc(F)cc1F (stereo partly drawn)
2. OC(CN1CCCN(c2ncc(F)cn2)CC1)(Cn1cncn1)c1ccc(F)cc1F (stereo not drawn)
3. OC(CN1C[C@H]2CC(Nc3ccc(F)cc3)C[C@H]2C1)(Cn1cncn1)c1ccc(F)cc1F (stereo partly drawn)

Ans:
[1, 0.12, 0.25]

// each listed molecule needs a value for MIC
1. OC(CN1CCCC(Nc2ccc(OCCN3CCOCC3)cc2)CC1)(Cn1cncn1)c1ccc(F)cc1F (stereo not drawn)
2. Cc1ccc(-c2ccc(NC3CCN(CC(O)(Cn4cncn4)c4ccc(F)cc4F)CC3)cc2)cc1 (stereo not drawn)

Ans:
1: 0.5; 2: 0.006

// each listed molecule needs a value for MIC
1. OC(CN1CCC(Nc2ccc(OCc3ccccc3)cc2)CC1)(Cn1cncn1)c1ccc(F)cc1F (stereo not drawn)
2. OC(CN1CCC(Nc2ccc(OCc3ccncc3)cc2)CC1)(Cn1cncn1)c1ccc(F)cc1F (stereo not drawn)
3. OC(CN1CCC2(CCN(c3ncc(F)cn3)CC2)C1)(Cn1cncn1)c1ccc(F)cc1F (stereo not drawn)

Ans:
0.003
0.0156
0.03
